system: Rattus norvegicus; experiment: Bioavailability in fasted Sprague-Dawley rat assessed as urinary excretion of phosphoric acid at 10 to 50 mg/kg, po after 24 hrs by HPLC relative to iv dosed phosphoric acid; type: ADME, organism-based, Urine; details: in vivo
measured.quantity: F (%)
Answer in %, number only, no unit symbol.

[[record]]
compound = "CCOC(=O)C(C)NP(=O)(NC(C)C(=O)OCC)c1ccc(-c2nc(N)sc2CC(C)C)o1 (mixture of isomers)"
target_system = "Rattus norvegicus"
measured_quantity = "F"
numeric_readout = 28


Lookup: Give F for CCOC(=O)CNP(=O)(NCC(=O)OCC)c1ccc(-c2nc(N)sc2CC(C)C)o1
Found: 26

Lookup: Give F for CCOC(=O)[C@H](Cc1ccccc1)NP(=O)(N[C@@H](Cc1ccccc1)C(=O)OCC)c1ccc(-c2nc(N)sc2CC(C)C)o1
Found: 3

Lookup: Give F for CCOC(=O)[C@@H](NP(=O)(N[C@H](C(=O)OCC)C(C)C)c1ccc(-c2nc(N)sc2CC(C)C)o1)C(C)C
Found: 7

====

tested on: Rattus norvegicus; assay: Bioavailability in fasted Sprague-Dawley rat assessed as urinary excretion of phosphoric acid at 10 to 50 mg/kg, po after 24 hrs by HPLC relative to iv dosed phosphoric acid; type: ADME, organism-based, Urine; settings: in vivo
measured.quantity: F (%)
Answer in %, number only, no unit symbol.

Below: 2 molecules and their reported F.
[[record]]
record_smiles = "CC(C)Cc1sc(N)nc1-c1ccc(P(=O)(O)O)o1"
measured_quantity = "F"
numeric_readout = 2

[[record]]
record_smiles = "COC(=O)CNP(=O)(COCCn1cnc2c(N)ncnc21)NCC(=O)OC"
measured_quantity = "F"
numeric_readout = 2


Lookup: Give F for CCOC(=O)[C@H](C)NP(=O)(N[C@@H](C)C(=O)OCC)c1ccc(-c2nc(N)sc2-c2ccccc2)o1
Found: 31

Lookup: Give F for CC(C)Cc1sc(N)nc1-c1ccc(P(=O)(OCOC(=O)OC(C)C)OCOC(=O)OC(C)C)o1
Found: 13

Lookup: Give F for CC(C)Cc1sc(N)nc1-c1ccc(P(=O)(N[C@@H](C)C(=O)OCC(C)(C)C)N[C@@H](C)C(=O)OCC(C)(C)C)o1
Found: 18

====

test system: Rattus norvegicus; assay: Bioavailability in fasted Sprague-Dawley rat assessed as urinary excretion of phosphoric acid at 10 to 50 mg/kg, po after 24 hrs by HPLC relative to iv dosed phosphoric acid; type: ADME, organism-based, Urine; settings: in vivo
measured.quantity: F (%)
Answer in %, number only, no unit symbol.

Below: 4 compounds and their reported F.
[[record]]
compound = "CCOC(=O)C(C)(C)NP(=O)(c1ccc(-c2nc(N)sc2CC(C)C)o1)N1CCCC1 (configuration not stated)"
target_system = "Rattus norvegicus"
measured_quantity = "F"
numeric_readout = 37

[[record]]
compound = "CCOC(=O)[C@H](C)NP(=O)(N[C@@H](C)C(=O)OCC)c1ccc(-c2nc(N)sc2SC)o1"
target_system = "Rattus norvegicus"
measured_quantity = "F"
numeric_readout = 23

[[record]]
compound = "CCCSc1sc(N)nc1-c1ccc(P(=O)(NC2(C(=O)OCC)CCCCC2)NC2(C(=O)OCC)CCCCC2)o1"
target_system = "Rattus norvegicus"
measured_quantity = "F"
numeric_readout = 1

[[record]]
compound = "CCCCOC(=O)[C@H](C)NP(=O)(N[C@@H](C)C(=O)OCCCC)c1ccc(-c2nc(N)sc2SCCC)o1"
target_system = "Rattus norvegicus"
measured_quantity = "F"
numeric_readout = 2


Lookup: Give F for CCOC(=O)c1sc(N)nc1-c1ccc(P(=O)(N[C@@H](C)C(=O)OCC)N[C@@H](C)C(=O)OCC)o1
Found: 30

Lookup: Give F for CCCSc1sc(N)nc1-c1ccc(P(=O)(N[C@@H](CC)C(=O)OCC)N[C@@H](CC)C(=O)OCC)o1
Found: 6

Lookup: Give F for COC(=O)[C@@H](C)NP(=O)(N[C@H](C)C(=O)OC)c1ccc(-c2nc(N)sc2CC(C)C)o1
Found: 22

====

Entries and their measured F follow.
test system: Rattus norvegicus; assay: Bioavailability in fasted Sprague-Dawley rat assessed as urinary excretion of phosphoric acid at 10 to 50 mg/kg, po after 24 hrs by HPLC relative to iv dosed phosphoric acid; type: ADME, organism-based, Urine; settings: in vivo
Answer in %, number only, no unit symbol.

Below: 6 compounds and their reported F.
[[record]]
record_smiles = "CCC[C@H](NP(=O)(N[C@@H](CCC)C(=O)OCC)c1ccc(-c2nc(N)sc2C(=O)OCC)o1)C(=O)OCC"
measured_quantity = "F"
numeric_readout = 4

[[record]]
record_smiles = "CCCOC(=O)[C@H](C)NP(=O)(N[C@@H](C)C(=O)OCCC)c1ccc(-c2nc(N)sc2CC(C)C)o1"
measured_quantity = "F"
numeric_readout = 16

[[record]]
record_smiles = "CCCSc1sc(N)nc1-c1ccc(P(=O)(N[C@H](C(=O)OCC)C(C)C)N[C@H](C(=O)OCC)C(C)C)o1"
measured_quantity = "F"
numeric_readout = 6

[[record]]
record_smiles = "CCOC(=O)[C@H](CC)NP(=O)(N[C@@H](CC)C(=O)OCC)c1ccc(-c2nc(N)sc2CC(C)C)o1"
measured_quantity = "F"
numeric_readout = 8

[[record]]
record_smiles = "CC(C)Cc1sc(N)nc1-c1ccc(P(=O)(NCC(=O)OC(C)(C)C)NCC(=O)OC(C)(C)C)o1"
measured_quantity = "F"
numeric_readout = 9

[[record]]
record_smiles = "CCOC(=O)c1sc(N)nc1-c1ccc(P(=O)(N[C@@H](CC)C(=O)OCC)N[C@@H](CC)C(=O)OCC)o1"
measured_quantity = "F"
numeric_readout = 5


// next entry
Lookup: Param request: F | system Rattus norvegicus | item CCOC(=O)[C@H](C)NP(=O)(N[C@@H](C)C(=O)OCC)c1ccc(-c2nc(N)sc2CC(C)C)o1
Found: 22

====

tested on: Rattus norvegicus; experiment: Bioavailability in fasted Sprague-Dawley rat assessed as urinary excretion of phosphoric acid at 10 to 50 mg/kg, po after 24 hrs by HPLC relative to iv dosed phosphoric acid; type: ADME, organism-based, Urine; details: in vivo
Entries and their measured F follow.
Answer in %, number only, no unit symbol.

Below: 5 molecules and their reported F.
[[record]]
molecule = "CCCSc1sc(N)nc1-c1ccc(P(=O)(N[C@@H](C)C(=O)OCC)N[C@@H](C)C(=O)OCC)o1"
value_units = "%"
numeric_readout = 17

[[record]]
molecule = "CCOC(=O)C(C)(C)NP(=O)(NC(C)(C)C(=O)OCC)c1ccc(-c2nc(N)sc2-c2ccccc2)o1"
value_units = "%"
numeric_readout = 30

[[record]]
molecule = "CCOC(=O)[C@H](CSCc1ccccc1)NP(=O)(N[C@@H](CSCc1ccccc1)C(=O)OCC)c1ccc(-c2nc(N)sc2CC(C)C)o1"
value_units = "%"
numeric_readout = 5

[[record]]
molecule = "CC(C)Cc1sc(N)nc1-c1ccc(P(=O)(OCOC(=O)C(C)(C)C)OCOC(=O)C(C)(C)C)o1"
value_units = "%"
numeric_readout = 11

[[record]]
molecule = "CC(C)CNP(=O)(NCC(C)C)c1ccc(-c2nc(N)sc2CC(C)C)o1"
value_units = "%"
numeric_readout = 0


Lookup: Param request: F | system Rattus norvegicus | item CCOC(=O)C(C)(C)NP(=O)(NC(C)(C)C(=O)OCC)c1ccc(-c2nc(N)sc2CC(C)C)o1
Found: 47

Lookup: Param request: F | system Rattus norvegicus | item CCOC(=O)C(C)(C)NP(=O)(c1ccc(-c2nc(N)sc2CC(C)C)o1)N1CCOCC1 (stereo not given)
Found: 32

Lookup: Param request: F | system Rattus norvegicus | item CCCSc1sc(N)nc1-c1ccc(P(=O)(N[C@@H](C)C(=O)OC(C)C)N[C@@H](C)C(=O)OC(C)C)o1
Found: 17

Lookup: Param request: F | system Rattus norvegicus | item CCCSc1sc(N)nc1-c1ccc(P(=O)(N[C@@H](COC(C)(C)C)C(=O)OC)N[C@@H](COC(C)(C)C)C(=O)OC)o1
Found: 9

Lookup: Param request: F | system Rattus norvegicus | item CCCSc1sc(N)nc1-c1ccc(P(=O)(NC(C)(C)C(=O)OCC)NC(C)(C)C(=O)OCC)o1
Found: 31
